Biological target: T1, monomeric cynomolgus monkey CSF1R ectodomain protein (cynomolgus monkey, UniProt P07333 20-517 (human entry))
T1 construct: also called monomeric cyno CSF1R; Cyno CSF1R
T1 chain: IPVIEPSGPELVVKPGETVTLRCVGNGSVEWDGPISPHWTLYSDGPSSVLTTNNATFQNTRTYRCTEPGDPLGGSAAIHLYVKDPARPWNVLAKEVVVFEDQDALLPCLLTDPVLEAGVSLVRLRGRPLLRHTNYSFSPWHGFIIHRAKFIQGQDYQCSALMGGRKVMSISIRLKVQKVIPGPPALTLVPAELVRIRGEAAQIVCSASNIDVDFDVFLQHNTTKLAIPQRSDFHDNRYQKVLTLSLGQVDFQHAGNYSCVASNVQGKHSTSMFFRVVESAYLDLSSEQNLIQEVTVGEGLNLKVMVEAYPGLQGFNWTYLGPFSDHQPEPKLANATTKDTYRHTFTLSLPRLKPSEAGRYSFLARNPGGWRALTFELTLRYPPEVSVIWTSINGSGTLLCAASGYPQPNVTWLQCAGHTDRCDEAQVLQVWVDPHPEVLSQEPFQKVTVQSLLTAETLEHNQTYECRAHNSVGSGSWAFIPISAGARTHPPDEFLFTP
Test: SPR Biacore, IgG captured, monomeric CSF1R analyte
Protocol: Affinity (KD) of purified IgGs was determined via SPR with antigen in-solution on a Biacore 3000 (GE). […] The obtained sensorgrams were analysed using the Biacore 3000 evaluation (BIAevaluation) software. The KD was calculated by simultaneous fitting of the association and dissociation phases to a 1:1 Langmuir binding model.
property.label: kon (M⁻¹ s⁻¹)
Your answer should be a plain number; it is taken to be in M⁻¹ s⁻¹.

MH25 (antibody, human IgG4, V domains shown, Deimmunized MH5 derivative, human IgG4(S228P)/Ckappa IgG) VH: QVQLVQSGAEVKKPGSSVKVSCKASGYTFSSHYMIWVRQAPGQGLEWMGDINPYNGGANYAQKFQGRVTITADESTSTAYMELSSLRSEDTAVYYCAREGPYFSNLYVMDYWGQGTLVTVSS VL: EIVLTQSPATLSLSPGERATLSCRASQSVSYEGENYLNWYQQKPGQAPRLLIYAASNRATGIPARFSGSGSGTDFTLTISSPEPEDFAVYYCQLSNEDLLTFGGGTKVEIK; 733000

Next, consider the following binder.
Enquiry: State the recorded kon for this entry: MH29 (antibody, human IgG4, V domains shown, Deimmunized MH5 derivative, human IgG4(S228P)/Ckappa IgG) VH: QVQLVQSGAEVKKPGSSVKVSCKASGYTFSSNYMIWVRQAPGQGLEWMGDINPYNGGANYAQKFQGRVTITADESTSTAYMELSSLRSEDTAVYYCAREGPYFSNLYVMDYWGRGTLVTVSS VL: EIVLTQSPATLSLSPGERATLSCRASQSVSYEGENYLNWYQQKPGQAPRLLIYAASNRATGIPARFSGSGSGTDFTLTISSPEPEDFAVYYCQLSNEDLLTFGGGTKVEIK
Return: 891000
